Assayed target: HER2 (Homo sapiens)
Sequence (P04626 23-1255): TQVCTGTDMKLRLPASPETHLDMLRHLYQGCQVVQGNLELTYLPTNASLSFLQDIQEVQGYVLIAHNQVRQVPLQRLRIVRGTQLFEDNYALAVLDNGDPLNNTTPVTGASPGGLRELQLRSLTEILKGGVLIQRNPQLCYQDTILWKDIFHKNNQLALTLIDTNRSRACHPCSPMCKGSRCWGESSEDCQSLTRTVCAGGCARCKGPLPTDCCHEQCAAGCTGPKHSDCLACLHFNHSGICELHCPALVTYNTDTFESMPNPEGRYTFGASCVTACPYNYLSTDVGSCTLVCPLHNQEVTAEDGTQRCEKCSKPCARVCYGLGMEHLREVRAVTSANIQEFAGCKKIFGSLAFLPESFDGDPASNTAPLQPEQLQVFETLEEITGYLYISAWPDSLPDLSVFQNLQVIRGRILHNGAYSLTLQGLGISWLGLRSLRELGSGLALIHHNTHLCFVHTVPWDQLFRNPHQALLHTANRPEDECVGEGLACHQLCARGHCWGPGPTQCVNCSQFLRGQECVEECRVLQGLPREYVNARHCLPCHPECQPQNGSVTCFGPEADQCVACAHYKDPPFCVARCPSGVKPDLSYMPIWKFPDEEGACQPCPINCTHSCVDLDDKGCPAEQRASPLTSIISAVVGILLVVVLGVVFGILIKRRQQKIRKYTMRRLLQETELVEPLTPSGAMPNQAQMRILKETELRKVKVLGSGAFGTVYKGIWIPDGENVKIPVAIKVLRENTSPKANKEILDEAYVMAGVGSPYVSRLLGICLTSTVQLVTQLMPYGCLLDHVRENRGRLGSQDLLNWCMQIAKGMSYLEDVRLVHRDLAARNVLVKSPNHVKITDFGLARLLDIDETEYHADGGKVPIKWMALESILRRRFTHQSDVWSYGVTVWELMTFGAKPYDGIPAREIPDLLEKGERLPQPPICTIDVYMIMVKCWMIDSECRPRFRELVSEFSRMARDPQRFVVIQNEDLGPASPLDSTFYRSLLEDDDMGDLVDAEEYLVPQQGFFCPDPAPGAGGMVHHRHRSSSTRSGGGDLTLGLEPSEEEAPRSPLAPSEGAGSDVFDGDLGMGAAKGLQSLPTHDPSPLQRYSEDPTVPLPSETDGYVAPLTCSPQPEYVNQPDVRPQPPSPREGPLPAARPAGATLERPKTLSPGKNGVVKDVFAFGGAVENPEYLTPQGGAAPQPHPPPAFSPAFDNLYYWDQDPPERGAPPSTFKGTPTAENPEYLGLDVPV
Test summary: Caliper Mobility Shift Assay, inhibition of HER2 kinase activity
Type: biochemical
Assay readout: IC50 (nM)
Write the answer as a number in nM, unit excluded.

GET /value?item= O=C(/C=C/c1ccccn1)Nc1cc2c(Nc3ccc(F)c(Cl)c3)ncnc2cc1OC1CCOC1 (centres unmarked) &field=IC50 returns 90

GET /value?item= CN(C/C=C/C(=O)Nc1cc2c(Nc3ccc(F)c(Cl)c3)ncnc2cc1OC1CCOC1)Cc1ccccc1 (centres unmarked) &field=IC50 returns 13

GET /value?item= `CN(C)C/C=C/C(=O)Nc1cc2c(Nc3ccc(F)c(Cl)c3)ncnc2cc1OC(F)F` &field=IC50 returns 11.7

GET /value?item= `COc1cc2ncnc(Nc3ccc(F)c(Cl)c3)c2cc1NC(=O)/C=C/CN(C)Cc1ccccc1` &field=IC50 returns 15
